# System under test: p35 form of the 30664188.0.99 gene product (active fragment of PDGFD) (human, UniProt Q9GZP0 250-370)
# Assay protocol: cell-based or functional assay
Readout name: IC50 (ng/mL), BrdU incorporation assay on NIH 3T3 cells

[
  {
    "Binder": "CURA2 MAb 1.18 (antibody, IgG2, V domains shown) VH: QVQLVQSGAEVKKPGASVKVSCKASGYTFTSYDINWVRQATGQGLEWMGWMNPNSGNTGYAQKFQGRVTMTRNTSISTAYMELSSLRSEDTAVYYCAREGIAVAGTYYYYYGMDVWGQGTTVTVSS VL: DIQMTQSPSSLSASVGDRVTITCRASQGIRNDLGWYQQKPGKAPKRLIYAASSLQSGVPSRFSGSGSGTEFTLTISSLQPEDFATYFCLQHNSYPFTFGPGTKVDIK",
    "Modifier": ">",
    "Numeric value": 1000
  },
  {
    "Binder": "CURA2 MAb 1.19 (antibody, IgG2, V domains shown) VH: QVQLVQSGAEVKKPGASVKVSCKASGYTFTSYDINWVRQATGQGLEWMGWMNPNSGNTGYAQKFQGRVTMTRNTSISTAYMELSSLRSEDTAVYYCARDVMITFGGVIVHYGMDVWGQGTTVTVSS VL: DIQMTQSPSSLSASVGDRVTITCRASQGIRNDLGWYQQKPGKAPKRLIYAASSLQSGVPSRFSGSGSGTDFTLTISSLQPEDFATYYCLQHNSDPCSFGQGTKLEIR",
    "Modifier": "=",
    "Numeric value": 75
  },
  {
    "Binder": "CURA2 MAb 1.46 (antibody, IgG2, V domains shown) VH: QVQLVQSGAEVKKPGASVKVSCKASGYSFTSYDINWVRQATGQGLEWMGWMNPNNGNTGYAQKFQGRVTMTRNTSISTAYMELSSLRSEDTAVYYCARDIVVVVTATDYYYGMDVWGQGTTVTVSS VL: DIQMTQSPSSLSASVGDRVTITCRASQGIRNDLGWYQQKPGKAPKRLIFAASSLPSGVPSRFSGSGSGTEFTLTISSLQPEDFATYYCLQHSGYPPTFGQGTKVEIK",
    "Modifier": "=",
    "Numeric value": 500
  }
]

// provenance: patent US20060293506A1
